- target.desc: NKA receptor (Mesocricetus auratus)
- Construct: from tissue; host or cells: hamster respiratory tract (trachea) ring specimens
- Sequence (P51144 whole entry): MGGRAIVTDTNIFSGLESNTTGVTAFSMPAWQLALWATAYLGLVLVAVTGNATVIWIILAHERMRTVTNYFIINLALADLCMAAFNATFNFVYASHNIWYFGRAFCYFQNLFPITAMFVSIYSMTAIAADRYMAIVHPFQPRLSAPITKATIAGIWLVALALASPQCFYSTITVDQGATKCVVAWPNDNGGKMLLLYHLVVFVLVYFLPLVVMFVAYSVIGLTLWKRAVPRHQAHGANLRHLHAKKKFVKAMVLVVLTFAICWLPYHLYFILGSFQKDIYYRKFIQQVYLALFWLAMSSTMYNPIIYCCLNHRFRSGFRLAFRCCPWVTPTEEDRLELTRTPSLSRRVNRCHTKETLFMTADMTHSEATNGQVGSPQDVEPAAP
- experiment.summary: Activity to constriction of hamster respiratory tracts caused by NKA (isolated tissue, tension)
- Format: cell-based
pIC50: −log10 of the molar value.
Binary classification by pIC50, with 8 as an inclusive lower bound for yes; all other cases are no.

Request: Reported pIC50 at or above 8? CC(C)(C)OC(=O)N[C@@H](CC(=O)OCc1ccccc1)C(=O)N[C@@H](CCC(N)=O)C(=O)N[C@@H](Cc1c[nH]c2ccccc12)C(=O)NN(Cc1ccccc1)C(=O)NCc1ccc(F)cc1
Response: yes

Request: Quick check, pIC50 >= 8? CC(C)(C)NC(=O)N[C@@H](CCC(N)=O)C(=O)N[C@@H](Cc1c[nH]c2ccccc12)C(=O)NN(Cc1ccccc1C(F)(F)F)C(=O)NCCOCc1ccccc1
Response: yes

Request: Evaluate CC(C)(C)OC(=O)N[C@@H](CCC(N)=O)C(=O)N[C@@H](Cc1c[nH]c2ccccc12)C(=O)NN(Cc1ccccc1)C(=O)NCc1ccc(F)cc1 : pIC50 at minimum 8?
Response: no

###

- target.desc: NKA receptor (Mesocricetus auratus)
- Construct: from tissue; host or cells: hamster respiratory tract (trachea) ring specimens
- experiment.summary: Activity to constriction of hamster respiratory tracts caused by NKA (isolated tissue, tension)
- Format: cell-based
Provide the reported IC50 of each item.

>  <smiles.structure>
CC(C)(C)OC(=O)N[C@@H](CC(N)=O)C(=O)N[C@@H](Cc1c[nH]c2ccccc12)C(=O)NN(Cc1ccccc1)C(=O)NCCOCc1ccccc1

>  <IC50>
6.8 nM

$$$$

Please go through the list and note IC50 for each compound.
1. CC(C)(C)OC(=O)N[C@@H](CC(=O)OCc1ccccc1)C(=O)N[C@@H](CCC(N)=O)C(=O)N[C@@H](Cc1c[nH]c2ccccc12)C(=O)NN(Cc1ccccc1)C(=O)NCCO
2. CC(C)(C)OC(=O)N[C@@H](CCS(C)(=O)=O)C(=O)N[C@@H](Cc1c[nH]c2ccccc12)C(=O)NN(Cc1ccccc1)C(=O)NCCOCc1ccccc1
3. COc1ccc(CNC(=O)N(Cc2ccccc2)NC(=O)[C@H](Cc2c[nH]c3ccccc23)NC(=O)[C@H](CCC(N)=O)NC(=O)[C@H](CC(=O)OCc2ccccc2)NC(=O)OC(C)(C)C)c(OC)c1
4. CC(C)(C)OC(=O)N[C@@H](CCC(N)=O)C(=O)N[C@@H](Cc1c[nH]c2ccccc12)C(=O)NN(Cc1ccccc1)C(=O)NCCOCc1ccc(F)cc1

Response:
["46 nM", "1.4 nM", "4900 nM", "5.6 nM"]

Request: Entry CC(C)(C)OC(=O)N[C@@H](CCC(N)=O)C(=O)N[C@@H](Cc1c[nH]c2ccccc12)C(=O)NN(Cc1ccccc1)C(=O)NCCOCc1ccccc1 , system NKA receptor (Mesocricetus auratus): what IC50 was measured?
Response: 0.66 nM
